test system: FXR:RXRa (NR concentration 270 nM, RXRa partner concentration 90 nM); test: PBM binding z-score (relative to random genomic background probes); higher = stronger binding; sequences stand for … in GC…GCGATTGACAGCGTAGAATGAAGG
What PBM binding z-score was measured for each of the following?
Give bare numbers.

Please look at the items below and tell me PBM binding z-score for each one, in order.
1. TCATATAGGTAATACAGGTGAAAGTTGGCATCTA
2. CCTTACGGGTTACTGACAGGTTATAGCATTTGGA
3. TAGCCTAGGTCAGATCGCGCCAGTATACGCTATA
4. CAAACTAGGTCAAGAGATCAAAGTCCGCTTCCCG
5. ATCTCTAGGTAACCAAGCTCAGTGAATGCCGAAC
6. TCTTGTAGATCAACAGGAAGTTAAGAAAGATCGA

Result:
[1.53, 0.701, 1.75, 3.4, 0.0567, 0.112]

Q: Enter recorded PBM binding z-score with FXR:RXRa (NR concentration 270 nM, RXRa partner concentration 90 nM) for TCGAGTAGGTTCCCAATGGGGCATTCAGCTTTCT here.
Result: -0.431
